Just for reference, ChEMBL document CHEMBL1201862 is where these values come from.

# Test system: SK-MEL-5
# ASSAY NAME: NCI tumour cell line growth inhibition, 48 h
Activity calls are given as the source filed them. Rule as the data show it: active = GI50 up to about 1.1 µM and inactive = higher.
READOUT LABEL: GI50

Worked set:
1. Cn1ccnc1Sc1ccc(/C=N/c2ccc3nc(SCC(=O)NC4CCCCC4)sc3c2)cc1[N+](=O)[O-]; > 100 µM (inactive)
2. C[C@]12C=CC(=O)C=C1CC[C@H]1[C@@H]3C[C@@H](O)[C@](O)(C(=O)CO)[C@@]3(C)C[C@H](O)[C@@]12F; > 100 µM (inactive)
3. O=C1N[C@H]2c3c(Cl)sc(Cl)c3C(=O)[C@H]2O1; 24 µM (inactive)
4. Brc1ccc2c(-c3nc(-c4c[nH]c5ccccc45)cs3)c[nH]c2c1; 22.1 µM (inactive)
5. FC(F)(F)c1ccc(/C=N/C23CC4CC(CC(C4)C2)C3)cc1; > 100 µM (inactive)
6. COc1ccc(CN(Cc2ccc(OC)cc2)C(=O)CC2(O)C=CCC2)cc1 (stereo not drawn); 32.9 µM (inactive)
7. CC(CO)C1C[C@H](O)[C@@]2(C)CC(=O)C=C(CO)[C@@H]2C1 (stereo partly drawn); > 100 µM (inactive)

Lab note: next molecule to report on.
Please state recorded GI50 (tested on SK-MEL-5) of COc1cc(/C=C2\N=C(c3ccccc3)N(c3ccc4c(c3)Sc3cc(N5C(=O)/C(=C/c6cc(OC)c(OC)c(OC)c6)N=C5c5ccccc5)ccc3N4)C2=O)cc(OC)c1OC
16.5 µM (inactive)
